FYI, the data here is from patent US7524964B2.

Reported inhibition at 0.2 µM values follow for various compounds
Molecular target: human CB-2 receptor (Homo sapiens, UniProt P34972)
Construct: expressed in transfected cells; host or cells: SK-N-MC cells, pcDNA3 CB-2 (human), semi-purified membranes
Sequence (P34972 whole entry): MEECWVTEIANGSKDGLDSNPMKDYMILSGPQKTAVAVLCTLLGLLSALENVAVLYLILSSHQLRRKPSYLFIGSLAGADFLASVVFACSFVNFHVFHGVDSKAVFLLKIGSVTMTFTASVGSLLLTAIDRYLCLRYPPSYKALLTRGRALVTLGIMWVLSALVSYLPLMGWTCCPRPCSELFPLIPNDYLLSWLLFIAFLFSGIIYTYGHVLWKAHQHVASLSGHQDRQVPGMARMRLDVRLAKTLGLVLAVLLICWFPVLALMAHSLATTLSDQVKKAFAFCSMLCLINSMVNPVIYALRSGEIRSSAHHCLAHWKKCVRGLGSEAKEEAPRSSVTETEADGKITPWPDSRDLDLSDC
Test: Binding assay, cannabinoid CB2 receptor ([3H]-CP-55,940 displacement)
Conditions: test concentration 0.2 μM (superscript a); read-out: CB2 binding percent inhibition
endpoint.label: inhibition at 0.2 µM (%)

>>> readout_value("O=C(NN1CC2CCCC2C1)c1nn(-c2ccc(Cl)cc2)c2c1CS(=O)(=O)C/C2=C\\c1ccc(F)cc1 (stereo not shown) [Cpd 97]")
8
>>> readout_value("O=C(NN1CCCCC1)c1nn(-c2ccc(Cl)cc2)c2c1CS(=O)(=O)C/C2=C\\c1ccc(F)cc1 [Cpd 99]")
12
>>> readout_value("O=C(c1nn(-c2ccc(Cl)cc2Cl)c2c1CSC/C2=C\\c1ccc(F)cc1)N1CCCC1 [Cpd 57]")
21
>>> readout_value("O=C(c1nn(-c2ccc(Cl)cc2Cl)c2c1CSC/C2=C\\c1ccc(F)cc1)N1CCCCC1 [Cpd 55]")
10
>>> readout_value("O=S1(=O)Cc2c(/C=C/S(=O)(=O)NN3CCCCC3)nn(-c3ccc(F)cc3F)c2C(Cc2cccc(F)c2)C1 (stereo not shown) [Cpd 45]")
8
>>> readout_value("CC1CCCC(C)N1NC(=O)c1nn(-c2ccc(Cl)cc2Cl)c2c1CSC/C2=C\\c1ccc(F)cc1 (stereo not shown) [Cpd 111]")
16
>>> readout_value("C[C@H](NC(=O)c1nn(-c2ccc(Cl)cc2Cl)c2c1C[S+]([O-])C/C2=C\\c1ccc(F)cc1)c1ccccc1 (stereo partly shown) [Cpd 74]")
8
>>> readout_value("O=C(NN1CC2CCCC2C1)c1nn(-c2ccc(Cl)cc2Cl)c2c1CSC/C2=C\\c1ccc(F)cc1 (stereo not shown) [Cpd 116]")
18
>>> readout_value("O=C(NN1CCCCC1)c1nn(-c2ccc(Cl)cc2Cl)c2c1CSC/C2=C\\c1ccc(Br)cc1 [Cpd 130]")
34
>>> readout_value("O=S1(=O)Cc2c(/C=C/S(=O)(=O)NN3CCOCC3)nn(-c3ccc(F)cc3F)c2C(Cc2cccc(F)c2)C1 (stereo not shown) [Cpd 44]")
9
>>> readout_value("O=C(NN1CCCC1)c1nn(-c2ccc(Cl)cc2)c2c1CSC/C2=C\\c1ccc(F)cc1 [Cpd 102]")
23
>>> readout_value("CC1CCCC(C)N1NC(=O)c1nn(-c2ccc(Cl)cc2Cl)c2c1CS(=O)(=O)C/C2=C\\c1ccc(F)cc1 (stereo not shown) [Cpd 108]")
18
>>> readout_value("C[C@@H](NC(=O)c1c2c(nn1-c1ccc(Cl)cc1Cl)/C(=C/c1ccc(F)cc1)CSC2)C1CCCCC1 [Cpd 89]")
10
>>> readout_value("O=C(c1nn(-c2ccc(Cl)cc2)c2c1CS(=O)(=O)C/C2=C\\c1ccc(F)cc1)N1CCCCC1 [Cpd 98]")
14
>>> readout_value("C[C@H](NS(=O)(=O)/C=C/c1n[nH]c2c1CSCC2Cc1cccc(F)c1)c1ccccc1 (stereo partly shown) [Cpd 47]")
26
>>> readout_value("C[C@H](NC(=O)c1c2c(nn1-c1ccc(Cl)cc1Cl)/C(=C/c1ccc(F)cc1)CS(=O)(=O)C2)C1CCCCC1 [Cpd 85]")
20
